We begin with a simple list: items and their reported pEC50.
Target: hTREM2 (Homo sapiens)
Test: Phospho-Syk AlphaScreen/AlphaLISA assay in TREM2 and DAP12 overexpressing HEK293 cells (Example A1)
Type: cell-based
Design: expressed in transfected cells
Conditions: HEK293 cells, read-out: hTREM2 EC50
pEC50: −log10 of the molar value.

Below, 5 compounds whose answers are already recorded.
CCCn1c(C)nc2cc(N3CCO[C@@H](c4ccnn4C)C3)nc(-c3ccc(Cl)cc3F)c2c1=O :: 6.30 to 7.30
Cc1nc2cc(N3CCC[C@H](N4CCCC4=O)C3)nc(-c3ccc(Cl)cc3F)c2c(=O)n1C :: 5.52 to 6.30
Cc1nc2cc(N3CCO[C@@H](c4cnn(C)c4)C3)nc(-c3ccc(Cl)cc3F)c2c(=O)n1C1CC1 :: 6.30 to 7.30
Cc1nc2cc(N3CC[C@H](c4ccccn4)C3)nc(-c3ccc(Cl)cc3F)c2c(=O)n1C :: 4.00 to 5.52
Cc1nc2cc(N3CCO[C@@H](c4cnn(C)c4)C3)nc(-c3ccc(F)cc3F)c2c(=O)n1C :: 6.30 to 7.30

So what's the measured pEC50 for this one? Cc1nc2cc(N3CCO[C@@H]([C@@H]4CCOC4)C3)nc(-c3ccc(Cl)cc3F)c2c(=O)n1C (single isomer, unassigned) 6.30 to 7.30

Entry Cc1nc2cc(N3CCO[C@@H](c4cnn(CCN(C)C)c4)C3)nc(-c3ccc(Cl)cc3F)c2c(=O)n1C has what pEC50? 6.30 to 7.30

* * *

A collection of compounds and their measured EC50
Molecular target: hTREM2 (Homo sapiens, UniProt Q9NZC2)
Sequence (Q9NZC2 19-230): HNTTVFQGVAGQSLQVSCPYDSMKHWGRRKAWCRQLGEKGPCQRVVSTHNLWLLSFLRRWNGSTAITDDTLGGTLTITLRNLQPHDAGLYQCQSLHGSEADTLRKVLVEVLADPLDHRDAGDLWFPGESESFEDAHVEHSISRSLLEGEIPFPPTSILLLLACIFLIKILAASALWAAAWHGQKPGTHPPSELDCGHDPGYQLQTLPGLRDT
Sequence (O43914 22-113 partner): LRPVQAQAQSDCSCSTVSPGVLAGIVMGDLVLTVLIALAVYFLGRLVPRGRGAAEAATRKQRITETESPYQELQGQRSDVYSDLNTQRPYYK
Experiment: Phospho-Syk AlphaScreen/AlphaLISA assay in TREM2 and DAP12 overexpressing HEK293 cells (Example A1)
Format: cell-based
Set-up: expressed in transfected cells
Conditions: HEK293 cells, read-out: hTREM2 EC50

Some compounds with recorded EC50:
Cc1nc2cc(N3CCO[C@@H](c4cnn(C(F)F)c4)C3)nc(-c3ccc(Cl)cc3F)c2c(=O)n1C [Example 253] :: < 50 nM
Cc1nc2cc(N3CCOC(c4noc(-c5ccccc5)n4)C3)nc(-c3ccc(Cl)cc3F)c2c(=O)n1C (stereo not shown) [Example 93] :: 500 to 3000 nM
Cc1nc2cc(N3CCOC(c4cnn(C)c4)C3)cc(-c3ncc(Cl)cc3F)c2c(=O)n1C (stereo not shown) [Example 15] :: 500 to 3000 nM

Suppose we examine the compound Cc1nc2cc(N3CCO[C@@H](c4cccnc4)C3)nc(-c3ccc(Cl)cc3F)c2c(=O)n1C (single isomer, unassigned) [Example 46] ; what EC50 value has been reported? 50 to 500 nM

# input compound: COc1cc([C@@H]2CN(c3cc4nc(C)n(C)c(=O)c4c(-c4ccc(Cl)cc4F)n3)CCO2)ccn1 [Example 243] ; wanted: its EC50 < 50 nM

EC50 for Cc1nc2cc(N3C[C@@H](C)O[C@@H](c4ccsc4)C3)nc(-c3ccc(Cl)cc3F)c2c(=O)n1C (single isomer, unassigned) [Example 73] ? 3000 to 100000 nM

Given the compound Cc1nc2cc(N3CCO[C@@H](c4cnn(C5CN(C(=O)OC(C)(C)C)C5)c4)C3)nc(-c3ccc(Cl)cc3F)c2c(=O)n1C [Example 134] , what is its reported EC50? 50 to 500 nM

* * *

Biological target: hTREM2 (Homo sapiens)
Assay: Phospho-Syk AlphaScreen/AlphaLISA assay in TREM2 and DAP12 overexpressing HEK293 cells (Example A1)
Type: cell-based
Set-up: expressed in transfected cells
Settings: HEK293 cells, read-out: hTREM2 EC50
Measured EC50, listed per entry for reference.

Worked examples follow.
CCc1nnc([C@@H]2CN(c3cc4nc(C)n(C)c(=O)c4c(-c4ccc(Cl)cc4F)n3)CCO2)[nH]1 [Example 241] :: 3000 to 100000 nM
Cc1nc2cc(N3CCO[C@@H](c4ccnc(C(F)(F)F)c4)C3)nc(-c3ccc(Cl)cc3F)c2c(=O)n1C [Example 266] :: < 50 nM
CCCn1c(C)nc2cc(N3CCn4ccnc4C3)nc(-c3ccc(Cl)cc3F)c2c1=O [Example 182] :: 3000 to 100000 nM
Cc1nc2cc(N3CCCC(C4CNC(=O)C4)C3)nc(-c3ccc(Cl)cc3F)c2c(=O)n1C (centres unmarked) [Example 106] :: 50 to 500 nM
Cc1nc2cc([C@H]3CCO[C@@H](c4cnn(C5CC5)c4)C3)nc(-c3ccc(Cl)cc3F)c2c(=O)n1C (single isomer, unassigned) [Example 165] :: < 50 nM

Any idea what its EC50 is? The molecule is Cc1nc2cc(N3CCO[C@@H](c4cnn(C)c4)C3)nc(-c3cccc(F)c3F)c2c(=O)n1C [Example 227] 3000 to 100000 nM

Which EC50 reading was recorded for the molecule CCCn1c(C)nc2cc(N3CCO[C@@H](c4cnn(C)c4)C3)nc(-c3ccc(Cl)cc3F)c2c1=O [Example 152] ? < 50 nM

Dear colleague, I am looking for the recorded EC50 of the following molecule: Cc1nc2cc(N3C[C@H](C)O[C@@H](C4CC4)C3)nc(-c3ccc(Cl)cc3F)c2c(=O)n1C (single isomer, unassigned) [Example 35] 500 to 3000 nM

# query: EC50 of entry Cc1nc2cc([C@@H]3CCO[C@@H](c4cccnc4)C3)nc(-c3ccc(Cl)cc3F)c2c(=O)n1C (relative stereo) [Example 176] 500 to 3000 nM

* * *

Biological target: hTREM2 (Homo sapiens)
Assay: Phospho-Syk AlphaScreen/AlphaLISA assay in TREM2 and DAP12 overexpressing HEK293 cells (Example A1)
Assay type: cell-based
Set-up: expressed in transfected cells
Conditions: HEK293 cells
endpoint: Emax

Cc1nc2cc(N3CCO[C@@H](c4cnn(C5CN(C)C5)c4)C3)nc(-c3ccc(Cl)cc3F)c2c(=O)n1C :: +++ (Emax>200 and ≤300)
COc1cc([C@@H]2C[C@H](c3cc4nc(C)n(C)c(=O)c4c(-c4ccc(Cl)cc4F)n3)CCO2)ccn1 [Example 267] :: +++ (Emax>200 and ≤300)
CCCn1c(C)nc2cc(N3CCO[C@H](C(F)F)C3)nc(-c3ccc(Cl)cc3F)c2c1=O [Example 191] :: ++++ (Emax>300)
Cc1nc2cc(N3CCO[C@@H](c4cnn(CCN(C)C)c4)C3)nc(-c3ccc(Cl)cc3F)c2c(=O)n1C :: ++++ (Emax>300)

* * *

Biological target: hTREM2 (Homo sapiens, UniProt Q9NZC2)
Assay: Phospho-Syk AlphaScreen/AlphaLISA assay in TREM2 and DAP12 overexpressing HEK293 cells (Example A1)
Assay type: cell-based
Set-up: expressed in transfected cells
Details: HEK293 cells
endpoint: Emax

CCCn1c(C)nc2cc(N3CCO[C@H](c4ccccc4)C3)nc(-c3ccc(Cl)cc3F)c2c1=O [Example 190] :: +++ (Emax>200 and ≤300)
Cc1nc2cc(N3CCC[C@H](c4ccncc4)C3)nc(-c3ccc(Cl)cc3F)c2c(=O)n1C (single isomer, unassigned) [Example 114] :: +++ (Emax>200 and ≤300)
Cc1nc2cc(N3CCO[C@@H](c4cnn(C)c4)C3)nc(C3CCCC3)c2c(=O)n1C [Example 160] :: +++ (Emax>200 and ≤300)
Cc1nc2cc(N3C[C@@H](C)O[C@@H](C4CC4)C3)nc(-c3ccc(Cl)cc3F)c2c(=O)n1C (single isomer, unassigned) [Example 34] :: ++++ (Emax>300)
Cc1nc2cc([C@H]3CCO[C@@H](c4cnn(C5CC5)c4)C3)nc(-c3ccc(Cl)cc3F)c2c(=O)n1C (single isomer, unassigned) [Example 165] :: +++ (Emax>200 and ≤300)

What value of Emax has been recorded for this entry: Cc1nc2cc(N3CC[C@H](c4ccncc4)C3)nc(-c3ccc(Cl)cc3F)c2c(=O)n1C [Example 254] ++++ (Emax>300)

Need Emax, item Cc1nc2cc(N3CCc4ncccc4C3)nc(-c3ccc(Cl)cc3F)c2c(=O)n1C [Example 248] +++ (Emax>200 and ≤300)

* * *

Target: hTREM2 (Homo sapiens, UniProt Q9NZC2)
Assay: Phospho-Syk AlphaScreen/AlphaLISA assay in TREM2 and DAP12 overexpressing HEK293 cells (Example A1)
Type: cell-based
Parameters: expressed in transfected cells
Details: HEK293 cells, read-out: hTREM2 EC50
pEC50: −log10 of the molar value.
Recorded pEC50 values for a group of compounds are listed next.

CCn1c(C)nc2cc(N3CCO[C@@H](c4noc(C)n4)C3)nc(-c3ccc(Cl)cc3F)c2c1=O [Example 148] :: 4.00 to 5.52
Cc1nc2cc(N3CCC(F)(F)[C@H](c4cnn(C)c4)C3)nc(-c3ccc(Cl)cc3F)c2c(=O)n1C (single isomer, unassigned) [Example 117] :: > 7.30
Cc1nc2cc(N3CCO[C@@H]([C@H]4CCO4)C3)nc(-c3ccc(Cl)cc3F)c2c(=O)n1C (single isomer, unassigned) [Example 38] :: 5.52 to 6.30

Param readout = pEC50; param system = hTREM2 (Homo sapiens, UniProt Q9NZC2); param query = CCCn1c(C)nc2cc(N3CCO[C@H](c4ccnn4C)C3)nc(-c3ccc(Cl)cc3F)c2c1=O [Example 154] ; response: value 4.00 to 5.52

Form entry - test system: hTREM2 (Homo sapiens, UniProt Q9NZC2); read-out: pEC50; compound: Cc1nc2cc(N3C[C@@H](C)O[C@@H](c4cnn(C)c4)C3)nc(-c3ccc(Cl)cc3F)c2c(=O)n1C (single isomer, unassigned) [Example 28] > 7.30

What measured pEC50 is associated with Cc1nc2cc(N3CCO[C@@H](c4cnn(C5CC(F)(F)C5)c4)C3)nc(-c3ccc(Cl)cc3F)c2c(=O)n1C [Example 131] on hTREM2 (Homo sapiens, UniProt Q9NZC2)? > 7.30
